All figures here come from the OligoGym collection.

- TARGET_OF_ASSAY: FLNC
- ASSAY_TEXT: pooled miR-30 sensor sort-seq; sequence = guide strand; further: reference of the scale not given here
- TEST_CONDITIONS: shRNA
MEASURED_METRIC: sensor-assay potency score (higher = more potent)

[[record]]
primary_sequence = "TTGACTGCAGTCCACTGTGAAG"
recorded_measurement = -1.44

[[record]]
primary_sequence = "TTGAACTTGATGGAGACCTCAT"
recorded_measurement = -0.144

[[record]]
primary_sequence = "TAGAGCTTCAGGTCTCCCTTGC"
recorded_measurement = 0.291


---

- TARGET_OF_ASSAY: SLC6A18
- ASSAY_TEXT: pooled miR-30 sensor sort-seq; sequence = guide strand
- TEST_CONDITIONS: shRNA
MEASURED_METRIC: sensor-assay potency score (higher = more potent)

[[record]]
primary_sequence = "TAAACGACACCCACAACCTCGA"
recorded_measurement = -0.526

[[record]]
primary_sequence = "TTGTCGAAAATCTCCAGCCAGT"
recorded_measurement = -1.14

[[record]]
primary_sequence = "ATTGTCGAAAATCTCCAGCCAG"
recorded_measurement = -0.569

[[record]]
primary_sequence = "TGAACAAGTAGATGAGTCCTTT"
recorded_measurement = -0.149

